Cited source for all entries: patent US11981658B2

target: UniProtKB P00533; assay: Biochemical EGFR kinase inhibition assay (Lance Ultra TR-FRET), wildtype; conditions: IC50 WT (nM), 100 μM ATP
Readout Kind: IC50

Examples from the recorded data:
Compound	Target Under Test	Experimental Result
CC1(CO)CCN(c2cc(Nc3ccnc(-c4cnn(S(=O)(=O)C5CC5)c4)n3)ncc2C#Cc2cnc(C(F)(F)F)s2)CC1 [Example 292]	UniProtKB P00533	> 10000 nM
CC1(CO)CCN(c2cc(Nc3ccnc(-c4cnn(S(=O)(=O)C5CC5)c4)n3)ncc2C#CC2CCCCC2)CC1 [Example 252]	UniProtKB P00533	> 10000 nM

Next, consider the following compound.
Lab note: measured IC50 of O=S(=O)(C1CC1)n1cc(-c2nccc(Nc3cc(N[C@H]4CCC[C@H](O)C4)c(C#Cc4cnn(CCF)c4)cn3)n2)cn1 [Example 44] was 2310 nM

###

molecular target: EGFR L858R/T790M/C797S (Homo sapiens, UniProt P00533, C797S/L858R/T790M); assay: Biochemical EGFR kinase inhibition assay (Lance Ultra TR-FRET), triple mutant L858R/T790M/C797S; settings: Km ATP; read-out: IC50 L858R/T790M/C797S (nM) Km ATP
Sequence (P00533 25-1210 T790M/C797S/L858R): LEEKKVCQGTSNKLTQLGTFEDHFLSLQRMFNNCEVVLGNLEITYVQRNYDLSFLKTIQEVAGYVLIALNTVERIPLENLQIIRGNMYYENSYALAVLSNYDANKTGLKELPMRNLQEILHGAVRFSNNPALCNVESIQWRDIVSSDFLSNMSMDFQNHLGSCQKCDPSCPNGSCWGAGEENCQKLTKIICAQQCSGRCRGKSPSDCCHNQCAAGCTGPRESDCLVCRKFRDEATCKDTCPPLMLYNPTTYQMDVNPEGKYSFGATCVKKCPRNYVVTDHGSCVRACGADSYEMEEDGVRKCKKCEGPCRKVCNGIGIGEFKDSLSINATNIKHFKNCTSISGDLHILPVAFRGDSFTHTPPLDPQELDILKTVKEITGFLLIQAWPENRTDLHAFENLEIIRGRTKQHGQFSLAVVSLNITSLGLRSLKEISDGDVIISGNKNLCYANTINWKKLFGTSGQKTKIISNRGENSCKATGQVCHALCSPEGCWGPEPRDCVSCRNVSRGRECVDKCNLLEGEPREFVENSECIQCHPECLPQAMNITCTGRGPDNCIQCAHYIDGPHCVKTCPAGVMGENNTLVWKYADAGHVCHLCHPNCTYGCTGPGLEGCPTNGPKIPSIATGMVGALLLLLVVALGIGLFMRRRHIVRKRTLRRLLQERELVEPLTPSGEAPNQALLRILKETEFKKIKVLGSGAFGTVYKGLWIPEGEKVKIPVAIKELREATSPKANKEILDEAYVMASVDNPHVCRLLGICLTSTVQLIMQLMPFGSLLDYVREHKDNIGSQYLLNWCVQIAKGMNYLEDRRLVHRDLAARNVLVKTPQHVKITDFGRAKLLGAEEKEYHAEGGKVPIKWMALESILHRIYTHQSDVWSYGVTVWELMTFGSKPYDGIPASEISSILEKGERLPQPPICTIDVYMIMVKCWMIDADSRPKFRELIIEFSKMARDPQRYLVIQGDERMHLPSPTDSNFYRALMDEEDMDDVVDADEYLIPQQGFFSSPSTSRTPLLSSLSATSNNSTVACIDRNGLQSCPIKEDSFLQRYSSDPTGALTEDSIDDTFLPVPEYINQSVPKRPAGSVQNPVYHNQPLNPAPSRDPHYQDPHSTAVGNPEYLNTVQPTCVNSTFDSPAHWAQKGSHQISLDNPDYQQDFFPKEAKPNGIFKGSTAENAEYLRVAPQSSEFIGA
Readout Kind: IC50 (nM)

The cases that follow already have their IC50 on record.
Compound	Quantity Unit	Experimental Result
CC(=O)N1CCC(n2cc(C#Cc3cnc(Nc4ccnc(-c5cnn(S(=O)(=O)C6CC6)c5)n4)cc3N3CCC(=O)CC3)cn2)CC1	nM	1.6
CCC(C)Nc1cc(Nc2ccnc(-c3cnn(S(=O)(=O)C4CC4)c3)n2)ncc1C#Cc1cnn(C)c1 (centres unmarked)	nM	4.4
CN(C)C(=O)Cn1cc(C#Cc2cnc(Nc3ccnc(-c4cnn(S(=O)(=O)C5CC5)c4)n3)cc2N[C@H]2CC[C@@](C)(O)CC2)cn1	nM	0.8

(a) CC(C)Nc1cc(Nc2ccnc(-c3cnn(S(=O)(=O)C4CC4)c3)n2)ncc1C#Cc1cnn(CCF)c1
(b) O=S(=O)(C1CC1)n1cc(-c2nccc(Nc3cc(N[C@H]4CCC[C@H](O)C4)c(C#Cc4cnn(C(F)(F)F)c4)cn3)n2)cn1
Lower IC50: a or b ? Label of pick, please.
a
(a: 1.3 nM, b: 2.8 nM)

###

target: EGFR wildtype (WT) (Homo sapiens, UniProt P00533); assay: Biochemical EGFR kinase inhibition assay (Lance Ultra TR-FRET), wildtype; conditions: ATP at Km; read-out: IC50 WT (nM), Km ATP
Sequence (P00533 25-1210): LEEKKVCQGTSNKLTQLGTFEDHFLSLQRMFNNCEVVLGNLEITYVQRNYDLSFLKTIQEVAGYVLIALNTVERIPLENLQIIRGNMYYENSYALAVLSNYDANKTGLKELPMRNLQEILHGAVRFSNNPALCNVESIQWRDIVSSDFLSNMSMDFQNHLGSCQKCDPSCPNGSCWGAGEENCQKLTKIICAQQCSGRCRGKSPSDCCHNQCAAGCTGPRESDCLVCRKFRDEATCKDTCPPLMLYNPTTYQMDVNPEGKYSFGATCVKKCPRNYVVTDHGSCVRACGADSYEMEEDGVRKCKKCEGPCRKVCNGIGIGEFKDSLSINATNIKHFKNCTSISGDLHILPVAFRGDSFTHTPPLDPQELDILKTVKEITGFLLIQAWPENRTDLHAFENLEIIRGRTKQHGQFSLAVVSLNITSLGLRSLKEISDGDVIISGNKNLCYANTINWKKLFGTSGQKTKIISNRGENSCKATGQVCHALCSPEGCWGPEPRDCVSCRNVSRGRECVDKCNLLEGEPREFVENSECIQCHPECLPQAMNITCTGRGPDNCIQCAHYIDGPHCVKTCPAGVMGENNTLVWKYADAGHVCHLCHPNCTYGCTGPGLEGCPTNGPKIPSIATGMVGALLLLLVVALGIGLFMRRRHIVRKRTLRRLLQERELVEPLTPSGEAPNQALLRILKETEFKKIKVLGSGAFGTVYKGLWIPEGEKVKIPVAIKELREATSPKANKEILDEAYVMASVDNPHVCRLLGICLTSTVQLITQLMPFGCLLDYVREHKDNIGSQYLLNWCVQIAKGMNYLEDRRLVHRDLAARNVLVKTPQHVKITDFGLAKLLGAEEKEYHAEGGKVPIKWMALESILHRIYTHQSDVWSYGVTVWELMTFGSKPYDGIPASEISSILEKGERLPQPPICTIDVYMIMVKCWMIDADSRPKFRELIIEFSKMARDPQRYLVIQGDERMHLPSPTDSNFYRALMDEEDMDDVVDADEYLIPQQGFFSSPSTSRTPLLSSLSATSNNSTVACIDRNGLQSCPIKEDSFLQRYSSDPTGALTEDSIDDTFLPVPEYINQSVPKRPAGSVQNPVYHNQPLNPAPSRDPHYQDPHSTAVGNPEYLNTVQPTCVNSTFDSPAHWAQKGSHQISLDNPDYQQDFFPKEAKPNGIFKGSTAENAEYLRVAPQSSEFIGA
Readout Kind: IC50 (nM)

1) Cn1cc(C#Cc2cnc(Nc3ccnc(-c4cnn(S(=O)(=O)C5CC5)c4)n3)cc2N2CCC3(CCNCC3)C2)cn1 44.4
2) O=S(=O)(C1CC1)n1cc(-c2nccc(Nc3cc(N[C@H]4CCC[C@@H](O)C4)c(C#Cc4ccc(CN5CCOCC5)cc4)cn3)n2)cn1 85.5

(a) CN(C)C(=O)c1cccc(C#Cc2cnc(Nc3ccnc(-c4cnn(S(=O)(=O)C5CC5)c4)n3)cc2N2CCC(C)(CO)CC2)n1
(b) O=S(=O)(C1CC1)n1cc(-c2nccc(Nc3cc(N[C@H]4CC[C@@H](CO)CC4)c(C#Cc4cnn(CC(F)F)c4)cn3)n2)cn1
(c) CC(C)Nc1cc(Nc2ccnc(-c3cnn(S(=O)(=O)C4CC4)c3)n2)ncc1C#CC1CCOCC1
Hello, I need these entries ordered by IC50, highest reading first. Thanks! Respond with the label ranking, as requested.
c, b, a

(a) CC1(CO)CCN(c2cc(Nc3ccnc(-c4cnn(S(=O)(=O)C5CC5)c4)n3)ncc2C#Cc2cnc(C(F)(F)F)s2)CC1
(b) C#Cc1cnc(Nc2ccnc(-c3cnn(S(=O)(=O)C4CC4)c3)n2)cc1N1CCC(C)(CO)CC1
// pick larger IC50 from pair: a vs b I would appreciate it if you answered with the label of your choice.
a
(a: 101 nM, b: 18.7 nM)

(1) CC1(CO)CCN(c2cc(Nc3ccnc(-c4cnn(S(=O)(=O)C5CC5)c4)n3)ncc2C#Cc2ccc(C(=O)N3CCOCC3)cc2)CC1
(2) CN(C)C[C@H]1CC[C@@H](Nc2cc(Nc3ccnc(-c4cnn(S(=O)(=O)C5CC5)c4)n3)ncc2C#Cc2cnn(C(F)F)c2)CC1
Given 1 and 2 , report the one with the higher recorded IC50. Identify your pick by its label.
2
(2: 44 nM, 1: 3 nM)

###

target: EGFR L858R/C797S (Homo sapiens, UniProt P00533, C797S/L858R); assay: Biochemical EGFR kinase inhibition assay (Lance Ultra TR-FRET), double mutant L858R/C797S; settings: Km ATP; read-out: IC50 L858R/C797S (nM) Km ATP
Sequence (P00533 25-1210 C797S/L858R): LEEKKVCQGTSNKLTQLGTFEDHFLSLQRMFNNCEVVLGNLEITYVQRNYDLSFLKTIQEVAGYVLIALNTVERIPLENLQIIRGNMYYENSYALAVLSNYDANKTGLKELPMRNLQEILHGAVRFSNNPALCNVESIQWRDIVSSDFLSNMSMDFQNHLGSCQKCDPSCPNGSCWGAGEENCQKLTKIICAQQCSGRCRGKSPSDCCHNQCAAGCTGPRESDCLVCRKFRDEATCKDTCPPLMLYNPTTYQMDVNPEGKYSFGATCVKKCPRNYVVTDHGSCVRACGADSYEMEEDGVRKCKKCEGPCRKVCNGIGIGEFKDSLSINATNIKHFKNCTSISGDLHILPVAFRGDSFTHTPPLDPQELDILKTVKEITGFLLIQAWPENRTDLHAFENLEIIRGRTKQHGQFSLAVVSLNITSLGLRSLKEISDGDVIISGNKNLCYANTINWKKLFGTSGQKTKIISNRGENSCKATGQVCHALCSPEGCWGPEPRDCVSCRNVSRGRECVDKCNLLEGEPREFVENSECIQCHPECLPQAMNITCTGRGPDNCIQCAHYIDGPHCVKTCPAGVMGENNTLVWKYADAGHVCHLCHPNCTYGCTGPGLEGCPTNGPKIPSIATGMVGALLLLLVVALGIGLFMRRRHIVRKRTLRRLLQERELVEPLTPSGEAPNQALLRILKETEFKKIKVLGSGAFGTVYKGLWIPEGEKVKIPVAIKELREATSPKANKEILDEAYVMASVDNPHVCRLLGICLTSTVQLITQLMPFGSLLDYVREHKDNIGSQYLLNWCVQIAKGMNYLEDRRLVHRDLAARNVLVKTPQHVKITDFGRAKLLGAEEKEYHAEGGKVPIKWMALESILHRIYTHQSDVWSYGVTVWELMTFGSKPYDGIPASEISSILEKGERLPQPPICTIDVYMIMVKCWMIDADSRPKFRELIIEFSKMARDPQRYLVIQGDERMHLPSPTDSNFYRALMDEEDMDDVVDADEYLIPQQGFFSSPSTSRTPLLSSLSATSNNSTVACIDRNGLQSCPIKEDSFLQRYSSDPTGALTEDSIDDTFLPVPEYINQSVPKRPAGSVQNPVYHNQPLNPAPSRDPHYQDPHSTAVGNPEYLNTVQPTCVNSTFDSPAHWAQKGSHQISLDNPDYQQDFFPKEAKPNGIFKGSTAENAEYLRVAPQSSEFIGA
Readout Kind: IC50 (nM)

Worked cases, IC50 given:
1. Cn1cc(C#Cc2cnc(Nc3ccnc(-c4cnn(S(=O)(=O)C5CC5)c4)n3)cc2N2CCC(NCC(F)F)CC2)cn1 1.8
2. CC1(CO)CCN(c2cc(Nc3ccnc(-c4cnn(S(=O)(=O)C5CC5)c4)n3)ncc2C#Cc2cnn3c2CNCC3)CC1 0.3

(I) CC(=O)N1CCC(n2cc(C#Cc3cnc(Nc4ccnc(-c5cnn(S(=O)(=O)C6CC6)c5)n4)cc3N3CCC(C)(CO)CC3)cn2)CC1
(II) CC1(O)CC2(CCN(c3cc(Nc4ccnc(-c5cnn(S(=O)(=O)C6CC6)c5)n4)ncc3C#Cc3cnn(C(F)(F)F)c3)CC2)C1
Which of the two items, I and II , has the greater recorded IC50? Respond with the label that goes with your answer.
II

###

target: EGFR L858R/T790M/C797S (Homo sapiens, UniProt P00533, C797S/L858R/T790M); assay: Biochemical EGFR kinase inhibition assay (Lance Ultra TR-FRET), triple mutant L858R/T790M/C797S; settings: IC50 L858R/T790M/C797S (nM), 100 μM ATP
Readout Kind: IC50 (nM)

Example entries and their recorded answers appear below.
Compound	Quantity Unit	Experimental Result
CNC1CCN(c2cc(Nc3ccnc(-c4cnn(S(=O)(=O)C5CC5)c4)n3)ncc2C#Cc2cnn(C)c2)CC1	nM	5.1
CS(=O)(=O)N1CCC(C#Cc2cnc(Nc3ccnc(-c4cnn(S(=O)(=O)C5CC5)c4)n3)cc2NC2CCC(CO)CC2)C1 (stereo not shown)	nM	1.3
CN(C)C[C@@H]1CCCN(c2cc(Nc3ccnc(-c4cnn(S(=O)(=O)C5CC5)c4)n3)ncc2C#Cc2cnn(CCF)c2)C1	nM	2.1

(P) CC1(CO)CCN(c2cc(Nc3ccnc(-c4cnn(S(=O)(=O)C5CC5)c4)n3)ncc2C#Cc2cccc(C(=O)N3CCOCC3)n2)CC1
(Q) O=S(=O)(C1CC1)n1cc(-c2nccc(Nc3cc(NC4CCC(O)CC4)c(C#CC4(F)CCOC4)cn3)n2)cn1 (stereo not shown)
Endpoint returns whichever of P and Q has the numerically higher IC50. // respond with label for picked entry
P
(P: 0.8 nM, Q: 0.3 nM)

###

target: EGFR Del19/C797S (Homo sapiens, UniProt P00533, C797S/DEL746-750); assay: Biochemical EGFR kinase inhibition assay (Lance Ultra TR-FRET), double mutant del19/C797S; conditions: IC50 Del19/C797S (nM), 100 μM ATP
Sequence (P00533 with tags, fused parts or gaps DEL746-750/C797S): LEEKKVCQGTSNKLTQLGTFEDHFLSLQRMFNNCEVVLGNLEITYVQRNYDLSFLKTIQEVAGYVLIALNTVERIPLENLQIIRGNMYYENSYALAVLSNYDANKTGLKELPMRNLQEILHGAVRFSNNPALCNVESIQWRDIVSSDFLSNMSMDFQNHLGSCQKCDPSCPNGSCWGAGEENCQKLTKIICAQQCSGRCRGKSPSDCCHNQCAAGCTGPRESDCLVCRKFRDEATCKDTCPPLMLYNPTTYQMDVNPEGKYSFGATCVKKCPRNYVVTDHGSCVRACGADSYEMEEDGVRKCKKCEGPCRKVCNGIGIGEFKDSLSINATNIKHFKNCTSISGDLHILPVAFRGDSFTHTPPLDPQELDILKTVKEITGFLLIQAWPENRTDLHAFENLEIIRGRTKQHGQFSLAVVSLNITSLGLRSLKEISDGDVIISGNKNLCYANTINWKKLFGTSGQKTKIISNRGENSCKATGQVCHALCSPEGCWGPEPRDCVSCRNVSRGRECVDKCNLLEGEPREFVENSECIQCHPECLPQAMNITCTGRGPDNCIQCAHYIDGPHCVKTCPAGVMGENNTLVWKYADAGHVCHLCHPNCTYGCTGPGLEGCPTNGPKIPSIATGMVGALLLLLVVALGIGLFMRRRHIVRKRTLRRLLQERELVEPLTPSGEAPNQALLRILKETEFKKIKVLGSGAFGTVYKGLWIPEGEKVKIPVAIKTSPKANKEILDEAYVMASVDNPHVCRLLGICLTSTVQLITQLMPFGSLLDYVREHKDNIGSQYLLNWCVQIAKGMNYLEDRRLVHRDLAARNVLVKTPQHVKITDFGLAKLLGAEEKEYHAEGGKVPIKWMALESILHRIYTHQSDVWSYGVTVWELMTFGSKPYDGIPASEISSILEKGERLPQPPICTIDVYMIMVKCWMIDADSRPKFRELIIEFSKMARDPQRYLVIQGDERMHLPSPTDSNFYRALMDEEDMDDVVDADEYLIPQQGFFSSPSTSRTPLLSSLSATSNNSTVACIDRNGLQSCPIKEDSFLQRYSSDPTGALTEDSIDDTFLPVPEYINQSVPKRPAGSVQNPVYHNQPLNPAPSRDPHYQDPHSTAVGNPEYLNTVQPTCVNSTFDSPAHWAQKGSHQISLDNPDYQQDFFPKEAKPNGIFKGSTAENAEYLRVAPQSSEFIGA
Readout Kind: IC50 (nM)

Molecule	IC50 (nM)
CN1CCC(C#Cc2cnc(Nc3ccnc(-c4cnn(S(=O)(=O)C5CC5)c4)n3)cc2N2CCC3(CCO3)CC2)C1 (stereo not drawn)	1.8
O=C(c1ccc(C#Cc2cnc(Nc3ccnc(-c4cnn(S(=O)(=O)C5CC5)c4)n3)cc2N[C@H]2CC[C@@H](CO)CC2)cc1)N1CCC(O)CC1	2.3
CN(C)CCC1CCN(c2cc(Nc3ccnc(-c4cnn(S(=O)(=O)C5CC5)c4)n3)ncc2C#Cc2cnn(C(F)(F)F)c2)CC1	2.3

###

molecular target: EGFR L858R/T790M/C797S (Homo sapiens, UniProt P00533, C797S/L858R/T790M); assay: Biochemical EGFR kinase inhibition assay (Lance Ultra TR-FRET), triple mutant L858R/T790M/C797S; conditions: Km ATP; read-out: IC50 L858R/T790M/C797S (nM) Km ATP
Readout Kind: IC50 (nM)

Molecule	IC50 (nM)
CC(C)Nc1cc(Nc2ccnc(-c3cnn(S(=O)(=O)C4CC4)c3)n2)ncc1C#Cc1cnn(C(C)C)c1 [Example 19]	2.3

(a) O=S(=O)(C1CC1)n1cc(-c2nccc(Nc3cc(N[C@H]4CC[C@@H](O)CC4)c(C#Cc4cnn(C(F)(F)F)c4)cn3)n2)cn1 [Example 102]
(b) CC(=O)N1CCC(n2cc(C#Cc3cnc(Nc4ccnc(-c5cnn(S(=O)(=O)C6CC6)c5)n4)cc3N3CCC(F)CC3)cn2)CC1 [Example 112]
Lab note: check whether a or b shows the higher recorded IC50. Identify your pick by its label.
a
(a: 2.1 nM, b: 1.1 nM)

###

target: EGFR L858R/C797S (Homo sapiens, UniProt P00533, C797S/L858R); assay: Biochemical EGFR kinase inhibition assay (Lance Ultra TR-FRET), double mutant L858R/C797S; settings: IC50 L858R/C797S (nM), 100 μM ATP
Readout Kind: IC50 (nM)

(1) CNC1CCN(c2cc(Nc3ccnc(-c4cnn(S(=O)(=O)C5CC5)c4)n3)ncc2C#Cc2ccn(C)n2)CC1
(2) CN(C)CCC1CCN(c2cc(Nc3ccnc(-c4cnn(S(=O)(=O)C5CC5)c4)n3)ncc2C#CC2CCN(C(=O)C(F)(F)F)C2)CC1 (stereo not drawn)
(3) Cn1cnc(C#Cc2cnc(Nc3ccnc(-c4cnn(S(=O)(=O)C5CC5)c4)n3)cc2N2CCC(O)CC2)c1
Kindly sort the 3 compounds above from the smallest to the largest IC50. Output spec: a listing of the labels in the requested order.
2, 3, 1
